Readings of Activity for the listed compounds
Target: Polyunsaturated fatty acid 5-lipoxygenase (Homo sapiens) (UniProt P09917)
Sequence (P09917 whole entry): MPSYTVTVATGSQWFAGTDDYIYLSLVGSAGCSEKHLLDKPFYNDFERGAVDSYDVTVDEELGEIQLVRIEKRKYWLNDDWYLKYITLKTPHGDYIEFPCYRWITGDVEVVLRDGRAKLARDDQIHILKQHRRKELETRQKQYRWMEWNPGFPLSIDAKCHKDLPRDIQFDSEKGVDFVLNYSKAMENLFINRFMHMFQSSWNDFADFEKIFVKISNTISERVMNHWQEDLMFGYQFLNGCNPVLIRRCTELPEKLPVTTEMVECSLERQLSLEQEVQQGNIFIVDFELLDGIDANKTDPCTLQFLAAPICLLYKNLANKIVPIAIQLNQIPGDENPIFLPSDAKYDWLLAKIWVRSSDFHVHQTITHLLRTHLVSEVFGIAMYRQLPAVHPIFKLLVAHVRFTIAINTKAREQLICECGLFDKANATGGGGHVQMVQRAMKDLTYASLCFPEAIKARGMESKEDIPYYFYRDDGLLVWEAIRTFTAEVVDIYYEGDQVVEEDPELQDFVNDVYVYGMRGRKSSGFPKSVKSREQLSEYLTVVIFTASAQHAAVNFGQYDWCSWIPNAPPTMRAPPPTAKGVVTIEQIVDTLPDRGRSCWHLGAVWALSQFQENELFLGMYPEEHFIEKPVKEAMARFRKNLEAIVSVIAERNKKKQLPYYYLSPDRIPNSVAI
Experiment: Inhibition of recombinant human 5-LO expressed in Escherichia coli BL21 (DE3) using arachidonic acid as substrate assessed as residual activity preincubated for 10 mins followed by CaCl2 and substrate addition measured after 10 mins by RP-HPLC analysis
Field format: number, assumed %, no unit text.

Check out these entries, answers already filled in.
Cc1ccc(S(=O)(=O)N(Cc2ccccc2)c2ccc(C(=O)O)cc2)cc1 ... 81.1
O=C(O)c1ccc(N(Cc2cnc3ccccc3c2)S(=O)(=O)c2ccc(-c3ccccc3)cc2)cc1 ... 75
O=C(O)c1ccc(N(Cc2cccs2)S(=O)(=O)c2ccc(F)cc2)cc1 ... 86.7
CC(C)(C)c1ccc(CN(c2ccc(C(=O)O)cc2)S(=O)(=O)c2ccc(C(C)(C)C)cc2)cc1 ... 50.2

# input compound: `Cc1ccc(S(=O)(=O)N(Cc2ccc(Cl)c(Cl)c2)c2ccc(C(=O)O)cc2)cc1` ; wanted: its Activity 97.6

Queued: `O=C(O)c1ccc(N(CC2CCCCC2)S(=O)(=O)c2ccc(Oc3ccccc3)cc2)cc1` 72

Queued: `O=C(O)c1ccc(N(Cc2ccccc2)S(=O)(=O)c2ccc(-c3ccccc3)cc2)cc1` 96.2

* * *

Biological target: Polyunsaturated fatty acid 5-lipoxygenase (Homo sapiens)
Assay: Inhibition of recombinant human 5-LO expressed in Escherichia coli BL21 (DE3) using arachidonic acid as substrate assessed as residual activity preincubated for 10 mins followed by CaCl2 and substrate addition measured after 10 mins by RP-HPLC analysis
experimental-endpoint: Activity (%)
Field format: number, assumed %, no unit text.

Check out these entries, answers already filled in.
Cc1ccc(S(=O)(=O)N(Cc2cccs2)c2ccc(C(=O)O)cc2)cc1 ... 92.7
Cc1ccc(S(=O)(=O)N(Cc2ccc(Cl)cc2)c2ccc(C(=O)O)cc2)cc1 ... 100
CCCCN(c1ccc(C(=O)O)cc1)S(=O)(=O)c1ccc(C)cc1 ... 99.1

# input compound: `Cc1ccc(S(=O)(=O)N(Cc2cccc(Cl)c2)c2ccc(C(=O)O)cc2)cc1` ; wanted: its Activity 107

Queued: `Cc1ccc(S(=O)(=O)N(Cc2c(F)cccc2Cl)c2ccc(C(=O)O)cc2)cc1` 86.7

Queued: `Cc1ccc(S(=O)(=O)N(Cc2ccccc2Cl)c2ccc(C(=O)O)cc2)cc1` 115

Queued: `Cc1ccc(CN(c2ccc(C(=O)O)cc2)S(=O)(=O)c2ccc(C)cc2)cc1` 93.4

Queued: `O=C(O)c1ccc(N(Cc2ccoc2)S(=O)(=O)c2ccc(-c3ccccc3)cc2)cc1` 110

Queued: `CCCCCCN(c1ccc(C(=O)O)cc1)S(=O)(=O)c1ccc(C)cc1` 86.1

Queued: `Cc1ccc(S(=O)(=O)N(Cc2cccs2)c2ccc(CC(=O)O)cc2)cc1` 97

Queued: `O=C(O)c1ccc(N(CC2CCCCC2)S(=O)(=O)c2ccc(-c3ccccc3)cc2)cc1` 57.5

Queued: `O=C(O)c1ccc(N(Cc2ccc3c(c2)OCCO3)S(=O)(=O)c2ccc(-c3ccccc3)cc2)cc1` 117

Queued: `Cc1ccc(S(=O)(=O)N(Cc2ccccc2)c2ccc(C(=O)NS(=O)(=O)c3ccccc3)cc2)cc1` 88.9

Queued: `O=C(O)c1ccc(N(Cc2cccs2)S(=O)(=O)c2ccc(-c3ccc4ccccc4c3)cc2)cc1` 71.9

* * *

Target: Polyunsaturated fatty acid 5-lipoxygenase (Homo sapiens) (UniProt P09917)
Test: Inhibition of 5-LO in human neutrophils using arachidonic acid as substrate assessed as residual activity preincubated for 15 mins followed by substrate addition measured after 10 mins in presence of Ca2+ ionophore A23187 by HPLC analysis
Threshold check on Activity: at or above 90% gives label 1, strictly below gives label 0.

Cc1ccc(S(=O)(=O)N(Cc2cccs2)c2ccc(CC(=O)O)cc2)cc1 ... label 1
O=C(O)c1ccc(N(Cc2cccs2)S(=O)(=O)c2ccc(F)cc2)cc1 ... label 1
O=C(O)c1ccc(N(Cc2cccs2)S(=O)(=O)c2ccc(-c3ccc4ccccc4c3)cc2)cc1 ... label 0
CCCCCCN(c1ccc(C(=O)O)cc1)S(=O)(=O)c1ccc(C)cc1 ... label 0
Cc1ccc(S(=O)(=O)N(Cc2ccc(Cl)cc2)c2ccc(C(=O)O)cc2)cc1 ... label 0
Cc1ccc(CN(c2ccc(C(=O)O)cc2)S(=O)(=O)c2ccc(C)cc2)cc1 ... label 1
Cc1ccc(S(=O)(=O)N(Cc2cccs2)c2ccc(C(=O)O)cc2)cc1 ... label 1
O=C(O)c1ccc(N(CC2CCCCC2)S(=O)(=O)c2ccc(F)cc2)cc1 ... label 1
Cc1ccc(S(=O)(=O)N(Cc2cccc(Cl)c2)c2ccc(C(=O)O)cc2)cc1 ... label 0

Would you kindly look at the next entry?
Say whether `Cc1ccc(S(=O)(=O)N(Cc2ccccc2)c2ccc(C(=O)O)cc2)cc1` shows Activity of 90% or more. label 0

Measured values drawn from ChEMBL document CHEMBL4270576 for this set.
